Test system: RXF 393
Assay: NCI tumour cell line growth inhibition, 48 h
Activity calls are given as the source filed them. Rule as the data show it: active = GI50 up to about 1.1 µM and inactive = higher.
METRIC: GI50

Reference set (4 entries):
MOL: CC1=C(C(=O)Nc2ccccc2)C(c2ccc(C3C(C(=O)Nc4ccccc4)=C(C)NC(C)=C3C(=O)Nc3ccccc3)cc2)C(C(=O)Nc2ccccc2)=C(C)N1
GI50: 1.91 µM (inactive)
--
MOL: CCCCN(C)/N=N/c1[nH]cnc1C(N)=O
GI50: > 66.7 µM (inactive)
--
MOL: O=C1C=CC(=O)C12CCc1ccccc12
GI50: > 94.6 µM (inactive)
--
MOL: CN1CCN(CCCNN)CC1
GI50: > 100 µM (inactive)

Checklist item: GI50 tested on RXF 393, entry `Cn1c(-c2cccs2)cc(-c2ccccc2)c1-c1cccs1` , value? > 100 µM (inactive)

Same question for `COc1ccc(/C=c2\sc3n(c2=O)CCN=3)cc1` please. 31.1 µM (inactive)

====

Test system: BT-549
Assay: NCI tumour cell line growth inhibition, 48 h
Where a name gives a salt, the structure may show the parent alone. The source made the active and inactive calls. Rule as the data show it: active = GI50 up to about 1.1 µM and inactive = higher.
The following compounds are shown together with reported GI50 values.

Reference set (4 entries):
COMPOUND: CC(C)C[C@H]1C(=O)N2CCC[C@H]2[C@]2(O)O[C@](NC(=O)[C@@H]3C=C4c5cccc6[nH]c(Br)c(c56)C[C@H]4N(C)C3)(C(C)C)C(=O)N12 [BROMOCRIPTINE MESYLATE]
GI50: > 100 µM (inactive)

COMPOUND: CCOc1ccc(/C=C2\NC(=S)N(/C=C3\C(=O)Oc4ccccc4C3=O)C2=O)cc1
GI50: 23.6 µM (inactive)

COMPOUND: O=c1[nH]cnc2c(C3OC(CO)C(O)C3O)c[nH]c12 (stereo not given)
GI50: > 100 µM (inactive)

COMPOUND: CC1OC(O[C@@H]2OC=C(C=O)[C@@]3(O)CC[C@H](C)[C@@H]23)C(O)C(O)C1O (stereo not given in full)
GI50: > 100 µM (inactive)

Let us examine a further case.
Look up GI50: COc1c2c(cc3c1C1(O)Cc4ccc5c(c4C[N+]1(C)CC3)OCO5)OCO2 (stereo not given) > 100 µM (inactive)

====

System: NCI-H226
Assay: NCI tumour cell line growth inhibition, 48 h
The source made the active and inactive calls. No stated cut-off is given here; in the data, active = GI50 up to about 1.1 µM and inactive = higher.
METRIC: GI50

Reference set (5 entries):
COMPOUND: CC(C)CC1NC(=O)C(C(C)C)NC(=O)CC(C)COC(=O)C(CC(C)C)N(C)C(=O)C(C(C)C)NC(=O)C(C(C)C)OC1=O (centres undefined)
EXPERIMENTAL SYSTEM: NCI-H226
METRIC: GI50
TEST VALUE: 13 µM (inactive)
//
COMPOUND: Cc1ccc(N2C(=O)C=C(C3=C(O)C(=O)N(c4ccc(C)cc4)C3=O)C2=O)cc1
EXPERIMENTAL SYSTEM: NCI-H226
METRIC: GI50
TEST VALUE: > 100 µM (inactive)
//
COMPOUND: O=[N+]([O-])c1ccc2c(/N=N/c3ccc4ccccc4c3O)c(O)cc(S(=O)(=O)O)c2c1
EXPERIMENTAL SYSTEM: NCI-H226
METRIC: GI50
TEST VALUE: 4.66 µM (inactive)
//
COMPOUND: CCOC(=O)C1=C(O)C(=O)c2ccccc2C1=O
EXPERIMENTAL SYSTEM: NCI-H226
METRIC: GI50
TEST VALUE: 48.3 µM (inactive)
//
COMPOUND: CC1OC(OC2C(O[C@H]3CC[C@@]4(C)C(=CC[C@H]5[C@@H]6C[C@@H]7O[C@]8(CC[C@H](C)CN8)[C@@H](C)[C@@H]7[C@@]6(C)CC[C@@H]54)C3)OC(CO)C(O)C2OC2OC(CO)C(O)C(O)C2O)C(O)C(O)C1O (some centres undefined)
EXPERIMENTAL SYSTEM: NCI-H226
METRIC: GI50
TEST VALUE: 17.4 µM (inactive)

Look up GI50: `O=[N+]([O-])c1ccc2[nH]c(-c3ccc(Cl)cc3)nc2c1` 22.3 µM (inactive)

Same question for O=c1[nH]c(=O)n(C2CC(O)C(CO)O2)c2nc3ccc4cc5ccccc5cc4c3nc12 (centres undefined) please. > 100 µM (inactive)

Same question for `Sc1nnc(C23CC4CC(CC(C4)C2)C3)n1-c1ccc(Cl)cc1` please. 23.3 µM (inactive)

Same question for `CN(C)CCCNc1ncnc2[nH]cnc12` please. > 100 µM (inactive)

====

Tested on: A549
Experiment: NCI tumour cell line growth inhibition, 48 h
The source made the active and inactive calls. No stated cut-off is given here; in the data, active = GI50 up to about 1.1 µM and inactive = higher.
METRIC: GI50

Reference set (7 entries):
COMPOUND: O=C(Nc1ccc(Cl)cc1)C(=O)C1=C(O)c2ccccc2OC1
GI50: > 100 µM (inactive)
--
COMPOUND: c1cc(-c2ncc(-c3ccc4c(c3)CCCO4)o2)ccn1
GI50: 7.41 µM (inactive)
--
COMPOUND: C=C[C@@]1(O)CCCC[C@@H]1CC(Sc1ccccc1)Sc1ccccc1
GI50: 15.9 µM (inactive)
--
COMPOUND: CC(=N/NC(=S)N1CCCCC1)/C(C)=N\NC(=S)N1CCCCC1
GI50: 1.73 µM (inactive)
--
COMPOUND: O=C(O)C12CC3CC(CC(F)(C3)C1)C2
GI50: > 100 µM (inactive)
--
COMPOUND: COc1ccc(/N=N/c2ccc3oc(=O)c(C(=O)Nc4ccc(OC)cc4)cc3c2)cc1
GI50: 31.4 µM (inactive)
--
COMPOUND: CC1OC(OC2C(OC(=O)[C@]34CCC(C)(C)C[C@H]3C3=CC[C@@H]5[C@@]6(C)CC[C@H](OC7OC(C(=O)O)C(O)C(O)C7O)C(C)(C)[C@@H]6CC[C@@]5(C)[C@]3(C)C[C@H]4O)OCC(O)C2O)C(O)C(O)C1OC1OCC(OC2OCC(O)C(O)C2O)C(O)C1O (stereo partly drawn)
GI50: 3.9 µM (inactive)

Let us examine a further case.
Look up GI50: `C=C1C(=O)[C@@]23CC[C@H]4[C@@](C)(CCC[C@@]4(C)C(=O)OC)[C@@H]2CC[C@]1(O)C3` 3.1 µM (inactive)

====

System: CCRF-CEM
Experiment: NCI tumour cell line growth inhibition, 48 h
Calls of active or inactive are those of the source. Cut-off read from the data, not from the text of the source: active = GI50 up to about 1.1 µM and inactive = higher.
Return exactly one item of TRUE for active, FALSE for inactive

Solved entries:
MOLECULE: CC1(C)O[C@H]2[C@@H]3N=C(c4ccccc4)O[C@@H]3C=C[C@H]2O1
EXPERIMENTAL SYSTEM: CCRF-CEM
GROUP LABEL: FALSE
--
MOLECULE: CC(C)(C)OC(=O)N1NC(c2ccccc2)CC1c1ccccc1 (stereo unspecified)
EXPERIMENTAL SYSTEM: CCRF-CEM
GROUP LABEL: FALSE
--
MOLECULE: O=[N+]([O-])c1cc(Cc2cc([N+](=O)[O-])c3cccnc3c2O)c(O)c2ncccc12
EXPERIMENTAL SYSTEM: CCRF-CEM
GROUP LABEL: FALSE
--
MOLECULE: CN(C)C1=Nc2ccccc2C(=S)N2CSCC12 (stereo unspecified)
EXPERIMENTAL SYSTEM: CCRF-CEM
GROUP LABEL: FALSE
--
MOLECULE: CC1=Nc2c(O)nc(S)nc2NC(c2ccc(Cl)c(Cl)c2)C1 (stereo unspecified)
EXPERIMENTAL SYSTEM: CCRF-CEM
GROUP LABEL: FALSE

State the result this test recorded for C=C1C(=O)OC2/C=C(\COC(C)=O)CCC(OC(C)=O)C3=CC(OC3=O)C12 (stereo unspecified) . TRUE

Same question for `Cc1nc2c(ccc3[nH]c4ccccc4c32)s1` please. FALSE

Same question for `O=c1ccn([C@@H]2C=C(CO)[C@@H](O)[C@H]2O)c(=O)[nH]1` please. FALSE

Same question for COC(=O)C12C3C=CC(O3)C1C1C=CC2O1 (stereo unspecified) please. FALSE

Same question for CC1CCC(O)(C(C)(C(=O)O)c2ccccc2)CC1 (stereo unspecified) please. FALSE

Same question for `NC(=O)C(=CNC(=S)Nc1cccc(C(F)(F)F)c1)C(N)=O` please. FALSE

====

System: NCI/ADR-RES
Assay: NCI tumour cell line growth inhibition, 48 h
Counter-ions that a name gives are not always drawn. Calls of active or inactive are those of the source. Rule as the data show it: active = GI50 up to about 1.1 µM and inactive = higher.
Return exactly one item of t = active, f = inactive

Solved entries:
MOLECULE: COC(=O)c1cc2c(n1S(=O)(=O)c1ccc(C)cc1)C(=O)C(=O)c1[nH]cc(C(=O)OCc3ccccc3)c1-2
EXPERIMENTAL SYSTEM: NCI/ADR-RES
GROUP LABEL: t

MOLECULE: CC(C)CCNC(=O)c1ccc(CNC(=O)/C=C/c2ccc(-c3ccccc3[N+](=O)[O-])o2)cc1
EXPERIMENTAL SYSTEM: NCI/ADR-RES
GROUP LABEL: f

MOLECULE: O=C(/C=C/c1ccccc1)CCC1C(=O)NC(=O)NC1=O
EXPERIMENTAL SYSTEM: NCI/ADR-RES
GROUP LABEL: f

MOLECULE: COc1cc(C(=O)c2cocc2C(=O)c2ccc3c(c2)OCO3)cc(OC)c1OC
EXPERIMENTAL SYSTEM: NCI/ADR-RES
GROUP LABEL: t

MOLECULE: CC(C)(C)OC(=O)N1NC(c2ccccc2)CC1c1ccccc1 (stereo unspecified)
EXPERIMENTAL SYSTEM: NCI/ADR-RES
GROUP LABEL: f

MOLECULE: O=c1ccn([C@@H]2C=C(CO)[C@@H](O)[C@H]2O)c(=O)[nH]1
EXPERIMENTAL SYSTEM: NCI/ADR-RES
GROUP LABEL: f

State the result this test recorded for CC(C)C[C@H]1C(=O)N2CCC[C@H]2[C@]2(O)O[C@](NC(=O)[C@@H]3C=C4c5cccc6[nH]c(Br)c(c56)C[C@H]4N(C)C3)(C(C)C)C(=O)N12 [BROMOCRIPTINE MESYLATE] . f

Same question for CN1C(=O)CC2CCCN2C1=O (stereo unspecified) please. f

Same question for CC1(N2CCOCC2)CC2C(=[N+]1[O-])CCC/C2=N/O (stereo unspecified) please. f

Same question for CCOC(=O)C1C(c2ccc(OC)cc2)c2c(n[nH]c2O)CC1(O)OCC (stereo unspecified) please. f

Same question for `CCOC(=O)c1cc([N+](=O)[O-])cc([N+](=O)[O-])c1Sc1[nH]cnc2ncnc1-2` please. f

Same question for `NC12CC3C4CC5(N)CC3C(C1)C(C5)C4C2` please. f

Same question for Cc1ccccc1NC(=O)CC(=O)NNC(Sc1ccccc1)c1cc(/N=N/c2ccc(Br)cc2)ccc1O (stereo unspecified) please. f

Same question for `COc1cccc(-c2nc(O)c3ccccc3n2)c1OC` please. f

Same question for COc1cc(S(=O)(=O)Nc2ccc(-c3csc(N4C(=O)C(C)SC4c4ccccc4O)n3)cc2)ccc1Cl (stereo unspecified) please. f

Same question for Cn1c(=O)n2n(c1=O)C([S+]([O-])c1ccccc1)C2 (stereo unspecified) please. f

Same question for `O=C(Nc1sccc1S(=O)(=O)c1ccc(Cl)cc1)C(F)(F)F` please. f

Same question for `Cc1nc2c(ccc3[nH]c4ccccc4c32)s1` please. f

Just for reference, ChEMBL document CHEMBL1201862 is where these values come from.
